Examples of sequences with documented apparent KD of MS2 coat protein follow.
System: MS2 coat protein
Assay explanation: apparent KD of MS2 coat protein, switch ON state; designed switch direction (-1 OFF switch, 1 ON switch): 1; higher = weaker reporter binding
Test parameters: FMN input: 0 or 200 uM; Eterna round: R93 (includes R88 designs)
Entry rule: numbers only, all in nM.

Seq text	Parameter	Value reported
AAGAAACAUGAGGAUCACCCAUGUGAGAUAAACACAGGAUAUGCAAAAGAAAGAAAGAAAGCAGAAGGGUGAAGAA [Mat - Same State 1 - Tesla mod - 51]	apparent KD of MS2 coat protein	21.6

Inquiry: For the sequence shown here, AAAACCUGCGUCGAGGAUAUGUAGCCCACUACAUGAGGAUCACCCAUGUGGAUCUUACUGGGUCGACAGAAGGUGAAAGUUAGGC [Onlele] , give the reported apparent KD of MS2 coat protein.
Reply text: 36.3

Inquiry: Try the sequence AAAAAACAUGAGGAUCACCCAUGUCCUCGGACGUGAGGAUAUGUACAGACUUCGGUCUGUACAGAAGGCACAAAAA [SS1 - 1034]
Reply text: 1240

Inquiry: Queued: UAACUACAUGAGGAUCACCCAUGUCUCCAGGGUCAAGGAUAUGGGCGUAGACAAACUACACCAGAAGGUGAUCCAA [Rireenon]
Reply text: 156

* * *

Test system: K4 kissing-loop RNA reporter
Assay explanation: apparent KD of K4 kissing-loop reporter; higher = weaker reporter binding
Test parameters: Eterna round: R107; input ligand: arginine 13.2 mM
Parameter: apparent KD of K4 kissing-loop reporter (nM)
Numeric answer only, unit nM assumed.

// known answers, use as guide
Seq text	apparent KD of K4 kissing-loop reporter, nM
UGGGAUGGGCGAGGAUAUGGUGAUGUUUGGGUUGUUAGUGAUGUUGGUGAUGCUGGUGGUGUUUGUCCAGAAGGCGCGGUUUUUU [Bdazzled 3]	64.1
GUAUCGCUAGGAGGAUAUUUCGUUUUUCAUAGCAAUGGCUAUGCGGAGUGAUGUUCCGAUUUACCGAAAGAAGGCCUAGUGAUAC [FMN B 25]	87.8

Now, please, on to the next sequence.
Inquiry: Form field: reported apparent KD of K4 kissing-loop reporter of GCAUAUACGAGAAGGAGCGUGCAUGACGAAUUAAUCAUCGACCUUAGUGAUGUUAAGGACGCACAGGUAGGUCGCUCGUGUAUGC [#04 K4 Arginine B Same State]
Reply text: 322

* * *

Test system: K4 kissing-loop RNA reporter;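 further: bound reporter read as fluorescence of individual clusters on recovered sequencing chips by microscopy, with normalized cluster intensities fitted with a binding model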
Assay explanation: apparent KD of K4 kissing-loop reporter; higher = weaker reporter binding
Test parameters: Eterna round: R107; input ligand: none
Parameter: apparent KD of K4 kissing-loop reporter (nM)
State the answer as a number, implicitly in nM.

Guide cases for apparent KD of K4 kissing-loop reporter, answers given:
Seq text	apparent KD of K4 kissing-loop reporter [nM]
UAUUGAGUGAUGUUCGAUAACCAAUCAGAUACCAGUUUUGUAGAAAACCCUUGGCAGCUGCUCAGCUCUAUAAUGCUUCGCCCUU [theeternabot_sameState_KL_Theo_A_18]	208
GGUGACAACCAGAGGUGAUGUAUAGAAUAGCGAGGACCGGUACGGCCGCCACUCGUGAAGAGAAAGGAGUGAUGUUCCGUAAUGG [Kazoo C5]	453
GGUCCGGGCUCGGCCGCCACUCCCUCCUGCCGUAAGGUGGGAUACCGAGUGAUGUUCGGUUGGAGGAGGACCGGGAGCCCGGACC [#2 Exclusion - Tryptophan B Attempt #15 (HarryS)]	122

Inquiry: Could you share which apparent KD of K4 kissing-loop reporter value was measured for GUAGGCUACCGAGGAUAUAGUCCAACGGAGUGAUGUUCCGUCUUUCUUCAUCAUUAACGUUGUGAUCUAGAAGGCGGUAGCCUAC ?
Reply text: 723

Inquiry: Also, CCAUUCUGUUACGAUACCAGUCAAAGAUAUUUGAUCAAUACCCUCGCCGAGUGAUGUUCGGACCCUUGGCAGCGUCUGGGACAGG [fdxxvmullin] please.
Reply text: 558

Inquiry: Then what about the sequence AAGCAGUCAGAGAGUGAUGUUCUCAAAUAACGAGGACCGGUACGGCCGCCACUCGAAGACUGCAAGUCCUACGAAAAGUAGGACA [Omei inspired 9] ?
Reply text: 58.3
